The reader will find reported phenotypic severity score values listed item by item below.
- System: Schistosoma mansoni schistosomula (NMRI)
- Assay Summary: phenotypic severity score (0-4); higher = more antischistosomal effect, active = 2 or more
- Assay Setup: 24 h; 10 µM
Recorded Metric: phenotypic severity score

Compound	Recorded Result
CCc1ccc([C@@H]2C[C@H](C(F)(F)F)n3ncc(C(=O)NCc4ccc(OC)cc4)c3N2)cc1	1 (inactive)
O=C(Nc1ccc(N2CCNCC2)nc1)c1oc(-c2ccccc2)nc1C(F)(F)F	0 (inactive)
Cc1ccc(Oc2ccc(NC(=O)CNc3ccccc3N3CCCC3=O)cc2)cc1	2 (active)
N#Cc1ccc(-c2cnc(N)c(-c3ccc(C(N)=O)cc3)n2)cc1	2 (active)
Cc1ccc2oc(-c3cc(NC(=O)Cc4ccccc4)ccc3Cl)nc2c1	1 (inactive)
CC1CCCN(C(=O)C(C)Nc2cc(Cl)ccc2N2CCOCC2)C1 (stereo unspecified)	0 (inactive)

----------
- System: Schistosoma mansoni schistosomula (NMRI)
- Assay Summary: phenotypic severity score (0-4); higher = more antischistosomal effect, active = 2 or more
- Assay Setup: 24 h; 10 µM
Outcomes: active, inactive

Molecule	Group Label
COc1cccc2c(C)nc(N=C(N)N)nc12	inactive
NC(=O)c1cc(Br)ccc1OCCOc1ccccc1	inactive
CC(C)(C)CN1C(=O)C(c2ccccc2)(c2ccccc2)N=C1N	inactive
CCC(C)NC(=O)c1ccc(NC(=O)C2(c3ccccc3)CCCC2)cc1 (centres undefined)	inactive
CS(=O)(=O)c1ccccc1C(=O)N(Cc1ccccc1)c1ccccc1	inactive
CC1=Nc2ccc(Cl)cc2C(O)(c2ccc(C)cc2)N1CCN1CCCCC1 (centres undefined)	inactive
Cc1cccc(-c2nc(Nc3ccncn3)c3sccc3n2)n1	inactive
Cc1ccc(S(=O)(=O)Nc2ccc(CN3CCN(C(=O)c4cccc(C#N)c4)CC3)cc2)cc1	inactive
CN1CCN(S(=O)(=O)c2ccc(-c3ccc4c(Nc5ncc(Cl)cn5)ccnc4c3)cc2)CC1	active
CC(=O)N1CCN(c2ccc(Oc3ccc(Cl)cc3O)cc2)CC1	inactive
CNC(=O)C1Cc2ccccc2N1C(=O)Cc1ccc(F)cc1 (centres undefined)	inactive
Cc1cc(OCC(=O)Nc2ccc(C(C)C)cc2)n(C)c(=O)c1C#N	inactive
COC(=O)c1c(NC(=O)c2c(F)c(F)c(F)c(F)c2F)sc2c1CCCCC2	active
CCOC(=O)c1noc(N)c1-c1ccccc1	inactive
COc1cc(C2=NCCN2)ccc1-c1cn(-c2cccc(C3=NCCN3)c2)nn1	inactive
Cc1cc(NC(=O)c2ccc(S(=O)(=O)N(Cc3ccccc3)C(C)C)cc2)no1	inactive
O=C(c1[nH]nc2c1CCCC2)N1CCN(Cc2ccc3c(c2)OCO3)CC1	inactive
Cc1ccc(S(=O)(=O)N2CCN(C(=O)c3cc(-c4ccccc4)[nH]n3)CC2)cc1	active
CC(C)(C)c1cc(C(=O)Nc2cccnc2)cc(C(=O)Nc2cccnc2)c1	inactive
Cc1ccc2cc(C3NC(=O)c4ccccc4N3)c(Cl)nc2c1 (centres undefined)	inactive
COc1ccccc1CNC(=O)c1cc(C2CC2)nc2c1cnn2C(C)C	inactive
Cc1cc2nc(NC(=O)C(C)(C)C)nc(Cl)c2n1Cc1ccc(Cl)cc1	inactive
COc1ccc(CN2CCOc3ccc(C(C)(O)CN(C)C)cc3C2)cc1C (centres undefined)	inactive
O=C(Nc1cccnc1)c1c(O)c2cccc3c2n(c1=O)CC3	inactive
CCn1cnc2c(Nc3cc(F)cc(F)c3)nc(C#N)nc21	active
O=C(Nc1nc(-c2ccccn2)cs1)c1cncn1-c1ccccc1	inactive
NCC(c1cccs1)S(=O)(=O)c1ccccc1 (centres undefined)	inactive
O[C@@H](c1cc(C(F)(F)F)nc2c(C(F)(F)F)cccc12)[C@H]1CCCCN1	active
CC(Oc1ccccc1)C(=O)Nc1nc(-c2ccccn2)cs1 (centres undefined)	active

----------
- Tested on: Schistosoma mansoni schistosomula (NMRI)
- Assay Summary: phenotypic severity score (0-4); higher = more antischistosomal effect, active = 2 or more
- Assay Setup: 24 h; 10 µM
Outcomes: active, inactive

Chemical String	Test Target	Group Label
N#CCN(CCCCN1CCN(c2ccc(F)cc2)CC1)C(=O)OCc1ccccc1	Schistosoma mansoni schistosomula (NMRI)	inactive
CCN(CC)S(=O)(=O)c1ccc(Cl)c(C(=O)Nc2ccc3nc(C)sc3c2)c1	Schistosoma mansoni schistosomula (NMRI)	inactive
CN1CCN(CCCOc2ncc(Nc3ncc(-c4ccc(C(F)(F)F)c(F)c4)nc3C(N)=O)cn2)CC1	Schistosoma mansoni schistosomula (NMRI)	active
Nc1ccc(C(=O)Nc2ccc(-c3nc4ccccc4o3)cc2)cc1	Schistosoma mansoni schistosomula (NMRI)	inactive
CC(C)(C)c1cc(C(=O)N2CCN(c3nccnc3C#N)CC2)n(Cc2ccccc2)n1	Schistosoma mansoni schistosomula (NMRI)	inactive
CC(C)(C)c1cnc(NC(=O)c2ccccc2O)s1	Schistosoma mansoni schistosomula (NMRI)	inactive

----------
- System: Schistosoma mansoni schistosomula (NMRI)
- Assay Summary: phenotypic severity score (0-4); higher = more antischistosomal effect, active = 2 or more
- Assay Setup: 72 h; 10 µM
Outcomes: active, inactive

Molecule	Group Label
c1cncc(NCc2ccc(-c3cc4ccncc4cc3OC3CCNCC3)s2)c1	active
CC1=NN(c2nc3ccccc3s2)C(=O)C1Cc1cccc2ccccc12 (stereo not given)	inactive
CC1CC1C(=O)NC1CCN(CC2(c3ccccc3)CCCCC2)CC1 (stereo not given)	inactive
O=C(NC1CCN(c2ccnc3ccccc23)C1)c1cccc(C(F)(F)F)c1 (stereo not given)	inactive
O=C(NC1CC1)c1ccc(N2CCC(Cc3ccccc3)CC2)nc1	inactive
O=C(c1ccc(F)cc1)N(CCNc1ccccc1)c1ccccc1	inactive
CCN(CC)CCCCCCNc1cc(OC)cc2c(C)ccnc12	inactive
O=C([C@@H](c1ccc(Cl)cc1)c1cccnc1)N1CCN(c2ccc(C(F)(F)F)cc2)CC1	active
COc1ccc(-c2cncc3ccc(C(=O)NCCCn4ccnc4)nc23)cc1	inactive
O=C(Nc1cccnc1)c1c(O)c2cccc3c2n(c1=O)CC3	inactive
Cc1cccc(-c2nc(Nc3ccncn3)c3sccc3n2)n1	active
Cc1nn2c(O)c3c(nc2c1-c1ccc(F)cc1)CCCC3	inactive
FC(F)(F)c1nnc2ccc(Cl)nn12	inactive
COc1cc(NC(C)CCCN)c2ncccc2c1 (stereo not given)	inactive
c1ccc(C[C@@H]2CN(c3nccc(Oc4ccc(-n5ccnc5)cc4)n3)CCN2)cc1	inactive
Nc1ncc(-c2cn[nH]c2)cc1-c1nc2cc(Cl)cnc2[nH]1	inactive
CCc1ccccc1-n1c(C)cn2c3c(=O)n(C(C(=O)OC)C(C)C)c(=O)n(C)c3nc12 (stereo not given)	inactive
CCOc1ccc(-c2nc(NC(=O)CS(=O)(=O)c3ccccc3)sc2C)cc1	inactive
COc1ccc(CCN2CCC(NCc3cccc(N(C)C)c3)CC2)cc1	inactive
Cc1nc(-c2ccccn2)nc(N(C)CCc2ccccc2)c1Cl	active

----------
- Tested on: Schistosoma mansoni schistosomula (Liberian)
- Assay Summary: drug effect (1 - score/DMSO control score) (fraction); higher = more antischistosomal effect, active = 0.5 or more; extreme values may be limits of the assay
- Assay Setup: 48 h; 10 µM
# if value of drug effect reaches 0.2, tag Fulfilled; if it stays below, tag Not fulfilled

Chemical String	Test Target	Group Label
CC(C)(C)n1nc(Cc2cccc3ccccc23)c2c(N)ncnc21	Schistosoma mansoni schistosomula (Liberian)	Fulfilled
Nc1ncc(-c2ccc(C(F)(F)F)nc2)cc1-c1ccc(C(F)(F)F)nc1	Schistosoma mansoni schistosomula (Liberian)	Not fulfilled
O=C(Nc1ccc(C(F)(F)F)c(C(F)(F)F)c1)c1cc(Cl)ccc1O	Schistosoma mansoni schistosomula (Liberian)	Fulfilled
COc1cc2ncnc(NC3CCN(Cc4ccccc4)CC3)c2cc1OC	Schistosoma mansoni schistosomula (Liberian)	Not fulfilled

----------
- System: Schistosoma mansoni schistosomula (NMRI)
- Assay Summary: phenotypic severity score (0-4); higher = more antischistosomal effect, active = 2 or more
- Assay Setup: 24 h; 10 µM
Outcomes: Y for active, N for inactive

Molecule	Group Label
OC[C@H]1O[C@@H](n2c3ccc(Cl)cc3c3c(-c4cc5ccccc5o4)ncnc32)C(O)[C@H]1O (some centres not stated)	N
COc1ccc(-c2cnc3ccc(N4CCCC4)nn23)cc1OC	Y
CN1CCN(c2nccc3nc(-c4ccc(F)c(F)c4)[nH]c23)CC1	N
CC(=O)NC[C@H]1CN(c2ccc(N3CCSCC3)c(F)c2)C(=O)O1	N
CCc1ccc(S(=O)(=O)Nc2cc(CN3CCN(CCC(C)C)CC3)ccc2C)cc1	N
COC(=O)c1ccc(F)cc1NS(=O)(=O)c1cccc(-c2cnn(Cc3ccccc3)c2)c1	N
COc1cc(CN2CCC3(C=Cc4ccccc43)CC2)cc2c1OCO2	N

----------
- Tested on: Schistosoma mansoni schistosomula (Liberian)
- Assay Summary: drug effect (1 - score/DMSO control score) (fraction); higher = more antischistosomal effect, active = 0.5 or more; extreme values may be limits of the assay
- Assay Setup: 48 h; 10 µM
Outcomes: yes (1) = active, no (0) = inactive

Compound	Group Label
COc1ccc(-c2cncc3ccc(C(=O)NCCCn4ccnc4)nc23)cc1	no (0)
O=C(Nc1ccccc1)c1ccc(-c2cc3ccncc3cc2OC2CCNCC2)s1	no (0)
CC1COC2(CCN(c3nc(=O)c4cc(C(F)(F)F)cc([N+](=O)[O-])c4s3)CC2)O1 (stereo unspecified)	no (0)
O=C(Nc1ccc(N2CCNCC2)nc1)c1oc(-c2ccccc2)nc1C(F)(F)F	no (0)
Cc1cc(NC(=O)c2ccc(Oc3ccc(Cl)cc3O)o2)no1	no (0)
COc1cc(C2=NCCN2)ccc1-n1cc(-c2cccc(C3=NCCN3)c2)nn1	no (0)
CCOc1ccc(OCC(=O)Nc2cc(C)cc(C)c2)cc1	no (0)
CCC(NC(=O)c1ccccc1NC(=O)c1ccc(C)cc1)C(=O)OC (stereo unspecified)	no (0)
Nc1nccc2ccc(Oc3ccncc3)cc12	no (0)
CC(C)(C)CN1C(=O)C(c2ccccc2)(c2ccccc2)N=C1N	no (0)
CCCCS(=O)(=O)Nc1ccc2cnn(C)c2c1	no (0)
Cc1cc(NCCc2ccccc2)nc(NC(=N)Nc2ccc(Cl)cc2)n1	yes (1)
CC(C)n1nc(-c2cc3c(Cl)cccc3[nH]2)c2c(N)ncnc21	yes (1)
c1ccc(-c2[nH]c3ccccc3c2C(c2ccccn2)N2CCCC2)cc1 (stereo unspecified)	yes (1)
COc1ccc(-c2cc(NC(=O)c3ccc(F)cc3Cl)ccc2OC)cc1	no (0)
CC(=O)NCC1CN(c2ccc(-c3ccc(CNCc4cn[nH]n4)cc3)c(F)c2)C(=O)O1 (stereo unspecified)	no (0)

Entry source: the supplement of paper PMC6805474
